Assay: acute toxicity (LD50), Litchfield-Wilcoxon method
Design: species or system mouse (male ddY)
Conditions: mouse, in vivo; male ddY mice, intravenous, emulsion in 10% dimethyl sulfoxide; read-out: LD50 intravenous
Protocol: The acute toxicity (LD50) data of compound No. 28 of the present invention as administered to two groups of 5 or 6-week old male ddY mice were obtained by the Litchfield-Wilcoxon method. One group of mice was fasted overnight prior to oral administration. To each group of mice, the test compound was administered in the form of emulsion in 10% dimethyl sulfoxide.

Compound: CC1=NC(C)=C(C(=O)OCC2CC2)C(c2ccccc2[N+](=O)[O-])N1C(=O)OCCN(CCCc1ccccc1)Cc1ccccc1 (stereo not shown) [Compound 28]
LD50: 180 to 200 mg/kg

Hey, just so you know, these numbers are from patent US4772602A.
